Data credit: PubChem BioAssay (NCI)

# Tested on: HS 578T breast
# measurement-notes: NCI tumour cell line growth inhibition, 48 h
measurement-label: TGI

[[record]]
molecule = "CCOC(=O)c1cc(-c2ccc(OC)c(OC)c2)cn1C"
system_under_test = "HS 578T breast"
measurement = "> 10 µM"

[[record]]
molecule = "COc1cc(/C=C/C(=O)c2ccc(Nc3nc(Nc4ccc(F)cc4)nc(Nc4ccc(F)cc4)n3)cc2)cc(OC)c1OC"
system_under_test = "HS 578T breast"
measurement = "> 100 µM"

[[record]]
molecule = "Cn1c2ccccc2n2c(=O)c(-c3ccc(O)cc3)nnc12"
system_under_test = "HS 578T breast"
measurement = "> 100 µM"

[[record]]
molecule = "CCOC(=O)Nc1ccc(S(=O)(=O)Nc2ccc(Br)cc2)cc1"
system_under_test = "HS 578T breast"
measurement = "> 100 µM"

[[record]]
molecule = "Oc1ccc2ccccc2c1/C=N\\Nc1ccccn1"
system_under_test = "HS 578T breast"
measurement = "> 34.5 µM"

[[record]]
molecule = "CC(=O)OCc1ccc(-c2nc(C#N)c(N)o2)o1"
system_under_test = "HS 578T breast"
measurement = "> 10 µM"

[[record]]
molecule = "O=C1c2cccnc2-c2nc(-c3ccc([N+](=O)[O-])cc3)cc3c2c1nc1ccccc13"
system_under_test = "HS 578T breast"
measurement = "23.6 µM"

[[record]]
molecule = "Cc1c2c(nn1-c1ccc(S/N=C3\\SCC(=O)CN3c3ccccc3)cc1)-c1ccccc1CC2"
system_under_test = "HS 578T breast"
measurement = "> 50 µM"

[[record]]
molecule = "CO/N=C1/c2cc(OC)ccc2-c2c(NOC)nc3ccccc3c21"
system_under_test = "HS 578T breast"
measurement = "51 µM"

[[record]]
molecule = "C#CCNC(Cc1ccccc1)C(=O)O (stereo not given)"
system_under_test = "HS 578T breast"
measurement = "> 100 µM"

